- Test system: U2OS
- test-method-notes: Multiplex assay against U2OS
- Format: toxicity, cell-based
- assay-setup: human, 24 h, 1 µM, compound concentration 1 uM, replicate 2
property: Population Pyknosed Nuclei (%)
Give bare numbers, in %.

CCOc1ccn(-c2ccc(F)cc2)c(=O)c1C(=O)Nc1ccc(Oc2ccnc(N)c2Cl)c(F)c1 [BMS-777607]
12
Cc1c(P(=S)(c2ccccc2)c2ccccc2)n2ccccc2[n+]1C/C=C/c1ccccc1.[Br-]
3
CC(C)C[C@H](NC(=O)[C@H](Cc1ccccc1)NC(=O)CNC(=O)CNC(=O)[C@@H](N)Cc1ccc(O)cc1)C(=O)O [ENKEPHALIN]
5

Please find the next compound below.
Short answer for "N#Cc1cccc(C(=O)Nc2cc(-c3ccccc3)nn2-c2ccccc2)c1" : Population Pyknosed Nuclei (%) was 10
